- TARGET ENTITY: HLA-A*0201/peptide complexes (Homo sapiens, UniProt P04439, D140Y/D185E/D98H/E176V/E277Q/G131W/G231S/I119V/I121R/I166T/I218V/L300P/L318F/N151K/N90K/P208A/P217A/Q86G/Q94H/R138H/R169H/T345S)
- PROTOCOL DESCRIPTION: HLA-A*0201/peptide complex stability on T2 cells (DC50)
- Assay type: binding
- CONDITION SUMMARY: 100 μM peptide overnight, Brefeldin A, 37° C.
MEASUREMENT KIND: DC50, half-life of disassociation of HLA-A*02.01/peptide complexes

RESIDUE STRING: SLTANMKEV (listed as Homo sapiens) [p621-29]
ASSAY VALUE: 4 to 6 h
//
RESIDUE STRING: VLLWEIFSL (listed as Homo sapiens) [p377-85]
ASSAY VALUE: 4 to 6 h
//
RESIDUE STRING: ALPIEYGPLV (listed as Homo sapiens) [p456-65]
ASSAY VALUE: 2 to 4 h
//
RESIDUE STRING: AMLDLLHVA (listed as Homo sapiens) [p282-90]
ASSAY VALUE: 4 to 6 h

Data provenance: patent US20030157101A1
